System: UO-31 renal
Assay: NCI-60 one-dose screen, 48 h
Conditions: 10 µM unless noted
This is part of a sample that, as a whole, favours compounds with a hit. Of some 83,000 tested, about 20% had one in any assay. The source made the active and inactive calls. Rule for the calls: active = growth percent below 10; inactive = the rest.
Respond only with the outcome that fits, drawn from label 1 = active, label 0 = inactive

Please review the entries below; each comes with its answer.
compound | measured-on | label-class
CC(=O)Nc1ccc(S(=O)(=O)Nc2cccc(-c3nc(-c4ccc(NC(=O)c5cccnc5)cc4Cl)no3)c2)cc1 | UO-31 renal | label 0
CC(=O)c1cc(C(=O)c2ccc3c(c2)Sc2ccccc2N3)n2ccccc12 | UO-31 renal | label 0
CC/C=C\C[C@H](O)C/C=C1/C(=O)C=C[C@@]1(C)C/C=C\CCCC(=O)OC | UO-31 renal | label 0
N#Cc1c(-c2ccc(Cl)cc2)nc(N/N=C/c2cccc(Br)c2)nc1N1CCOCC1 | UO-31 renal | label 0
CC/C=C\C[C@H]1C/C=C2/C(=O)C=C[C@H]2C/C=C\CCCC(=O)O1 | UO-31 renal | label 0

Problem: Kindly provide the recorded test outcome for the following compound: CC(=O)c1cc2c(N)c(C(=O)Nc3ccccc3)sc2nc1C
Result: label 0

Problem: Kindly provide the recorded test outcome for the following compound: C=C1C(=O)O[C@H]2[C@H]1CC/C(COC(=O)NCCc1ccc(OC)c(OC)c1)=C\CC[C@@]1(C)O[C@@H]21
Result: label 0

Problem: Kindly provide the recorded test outcome for the following compound: CCCCn1c(-c2ccc(C(=O)O/N=C(\N)c3ccc4ccccc4c3)cc2)nc(-c2ccccc2)c1-c1ccccc1
Result: label 1

Problem: Kindly provide the recorded test outcome for the following compound: COc1ccc(NC(=O)c2ccc(/C=C/C(=O)c3ncc[nH]3)cc2)cc1
Result: label 0

Problem: Kindly provide the recorded test outcome for the following compound: CC(=O)O[C@H]1CC[C@]2(C)[C@H]3CC=C4[C@@H]5CC(C)(C)CC[C@]5(C(=O)NCCNCCN)CC[C@@]4(C)[C@]3(C)CC[C@H]2C1(C)C
Result: label 1

Problem: Kindly provide the recorded test outcome for the following compound: CC1=C/C(=C(\c2ccc(N(C)C)cc2)c2ccc([N+](C)(C)C)cc2)C=CC1=[N+](C)C
Result: label 0

Problem: Kindly provide the recorded test outcome for the following compound: COc1ccc(-n2nc(C)c3c(Nc4ccc(NC(=O)Nc5cccc(C(F)(F)F)c5)cc4)ncnc32)cc1
Result: label 1

Problem: Kindly provide the recorded test outcome for the following compound: CN(C)CCN1C(=O)c2cccc3c(N)ccc(c23)C1=O
Result: label 0

Problem: Kindly provide the recorded test outcome for the following compound: O=C(N/N=C/c1ccccc1O)c1ccccc1Nc1ccnc(C(F)(F)F)c1
Result: label 1

Problem: Kindly provide the recorded test outcome for the following compound: CCOc1cc2ncc(C#N)c(Nc3ccc(OCc4cccc(F)c4)c(Cl)c3)c2cc1NC(=O)CCCCC1CCSS1 (centres undefined)
Result: label 0
